experiment: Primary qHTS for inhibitors of nuclear receptor binding SET domain protein 2 (NSD2) in an RCH-ACV wild type WT cells (2C) (AID 1645877); settings: RCH-ACV (leukaemia line) NSD2 WT (2C) viability, CellTiter-Glo, 72 h; series mostly up to 44.9 µM; also: nearly all actives have a fitted effect of over 70% in size
Inconclusive results are not listed. The source made the active and inactive calls. Calls follow the shape of the dose curve; as a rule, active = well fitted inhibition curve with a large enough effect; inconclusive = small, poorly fitted or top-dose-only effect; inactive = no such curve, though single readings can be large or run the other way.
Respond only with the outcome that fits, drawn from true (1) for active, false (0) for inactive

Consider the following illustrative entries.
COc1cc(OC)c2ccc(=O)oc2c1 = false (0)
COc1ccc(NC(=O)N2CCc3c2ccc2ccccc32)cc1N1CCN(C)CC1 = true (1)

Query block: Please let me know the test result on file for O=C1NC(=NCc2cccs2)S/C1=C/c1ccc2ncccc2c1 .
Result block: true (1)

Query block: Please let me know the test result on file for CCS(=O)(=O)N(Cc1cccnc1)c1cccc(-c2ccc(C#N)cc2)c1 .
Result block: true (1)

Query block: // param item: Cc1cc(I)ccc1Nc1c(C(=O)NOCC2CC2)cc(F)c(F)c1F ; yields the recorded call
Result block: true (1)

----------
assay: Tertiary RLuc qRT-PCR qHTS assay for Zika virus inhibitors (AID 1347169); settings: infected Vero cells, reporter luminescence, 48-72 h; series mostly up to 1.74 µM; also: nearly all actives have a fitted effect of over 55% in size; also: potency is read from the fitted curve at half-maximal effect
Records with an inconclusive call do not appear. Active and inactive are the calls of the source. The call rests on the fitted dose curve; in most records, active means well fitted inhibition curve with a large enough effect; inconclusive means small, poorly fitted or top-dose-only effect; inactive means no such curve, though single readings can be large or run the other way.
measuredAttribute: Potency

Example entries begin here.
C[C@@H](NC(=O)c1ccc(Cl)cc1)c1c(-c2ccc(F)cc2)noc1C(=O)O = inactive
Cc1cccc(C)c1-n1c(SCC(=O)Nc2ccc(C(=O)O)cc2)nnc1-c1cccc([S+](=O)([O-])N2CCCC2)c1 = inactive
CC(C)CN1CC(COc2ccc3ccccc3c2)Oc2ccnc(-c3ccc(OCC(=O)O)cc3)c2C1=O (stereo not drawn) = inactive
CCOc1ccc(C2C(=O)N(C3CCCCCC3)CC(=O)N2CCc2ccc(Cl)cc2)cc1OC (stereo not drawn) = 18.6 µM (active)
CC1CCN(C(c2ccc(F)cc2)c2ccc(C(C)C(=O)O)cc2-c2ccc(C(F)(F)F)cc2)CC1 (stereo not drawn) = 6.58 µM (active)

Query block: What Potency value was documented for this compound, O=C(COc1ccccc1)Nc1ccc(C(=O)OCc2cc(=O)n3nc(C4CC4)sc3n2)cc1 ?
Result block: inactive

Query block: What Potency value was documented for this compound, NC(Cc1cc(I)c(Oc2ccc(O)c(I)c2)c(I)c1)C(=O)O (stereo not drawn) ?
Result block: inactive

Query block: Request the reported Potency associated with CC1O[C@@H](O[C@@H]2C(O)C[C@H](O[C@@H]3C(O)C[C@@H](OC4CC[C@@]5(C)C6CC(O)[C@@]7(C)C(C8=CC(=O)OC8)CC[C@@]7(O)C6CC[C@@H]5C4)OC3C)OC2C)CC(O)[C@H]1O (stereo partly drawn)
Result block: 1.17 µM (active)

----------
experiment: Stat Signaling Pathway (AID 446); conditions: ME-180 (cervical carcinoma) SIE beta-lactamase reporter, IL-6 stimulated, 5 h; at 17.2 µM (top of the series);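 also: ME-180 cervical cancer cells given 40 pM IL-6 alongside compound; SIE-controlled beta-lactamase reporter measured as 460/530 nm FRET emission ratio; % is scaled to controls: 0 for no effect and ±100 for the full control effect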
Records with an inconclusive call do not appear.
Parameter: activity, negative = inhibition. Scope: all listed entries.
Entry rule: numbers only, all in %.

C=C[C@H](N)CCC(=O)O = -1.55
CCOC(=O)CCC(=O)O[C@H]1[C@H](O[C@@H]2[C@@H](C)[C@H](O[C@H]3C[C@@](C)(OC)[C@@H](O)[C@H](C)O3)[C@@H](C)C(=O)O[C@H](CC)[C@@](C)(O)[C@H](O)[C@@H](C)C(=O)[C@H](C)C[C@@]2(C)O)O[C@H](C)C[C@@H]1N(C)C = 1.81
O=C(NCCNC[C@@H](O)COc1ccc(O)cc1)N1CCOCC1 = 6.36
COc1cc(CNC(=O)CCCC/C=C\C(C)C)ccc1O = -15.5
CC(C)(C)NC[C@H](O)c1ccc(O)c(CO)c1 = 16.1

// moving on: another record for activity, negative = inhibition
Query block: Given the molecule C[C@@H](CCc1ccc(O)cc1)NCCc1ccc(O)c(O)c1 , what is its reported activity, negative = inhibition?
Result block: 13.9

----------
biological target: Furin (Homo sapiens) (UniProt P09958); assay: Furin counterscreen qHTS for Zika virus inhibitors (AID 1347149); conditions: furin enzymatic counterscreen, fluorogenic substrate; series mostly up to 114 µM; also: nearly all actives have a fitted effect of over 70% in size
Sequence (P09958 whole entry, looked up): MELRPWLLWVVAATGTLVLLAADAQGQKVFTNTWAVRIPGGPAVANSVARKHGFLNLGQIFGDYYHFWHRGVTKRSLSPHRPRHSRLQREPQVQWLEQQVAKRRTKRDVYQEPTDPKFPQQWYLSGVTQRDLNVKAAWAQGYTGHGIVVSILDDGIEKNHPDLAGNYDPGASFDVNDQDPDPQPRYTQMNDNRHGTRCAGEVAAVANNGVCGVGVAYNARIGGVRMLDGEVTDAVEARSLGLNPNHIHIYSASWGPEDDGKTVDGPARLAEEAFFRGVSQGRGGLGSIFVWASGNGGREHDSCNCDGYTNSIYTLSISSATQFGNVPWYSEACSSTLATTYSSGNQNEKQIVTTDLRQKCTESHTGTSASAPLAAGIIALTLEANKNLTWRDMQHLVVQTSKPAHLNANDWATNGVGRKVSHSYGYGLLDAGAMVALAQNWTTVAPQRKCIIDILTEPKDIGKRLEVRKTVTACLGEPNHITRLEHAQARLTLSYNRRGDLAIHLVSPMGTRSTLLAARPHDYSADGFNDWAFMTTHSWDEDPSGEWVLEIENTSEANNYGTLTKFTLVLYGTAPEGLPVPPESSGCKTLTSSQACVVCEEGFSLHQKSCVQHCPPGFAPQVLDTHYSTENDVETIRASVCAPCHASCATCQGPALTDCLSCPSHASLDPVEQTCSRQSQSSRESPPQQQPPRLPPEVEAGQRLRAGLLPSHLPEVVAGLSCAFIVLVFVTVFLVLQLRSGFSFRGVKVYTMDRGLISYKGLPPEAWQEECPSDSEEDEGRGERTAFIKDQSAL
Records with an inconclusive call do not appear. Calls of active or inactive are those of the source. Calls come from the whole dose curve; as a rule, active = well fitted inhibition curve with a large enough effect; inconclusive = small, poorly fitted or top-dose-only effect; inactive = no such curve, though single readings can be large or run the other way.
Please answer using one outcome listed in active, inactive

O=C(OCC#CCSc1nnc(-c2ccc(F)cc2)o1)c1ccc(F)cc1 = inactive

Query block: What did the test return for CC(NC(=O)C1CCN(S(=O)(=O)c2ccc3nc4c(c(C(=O)O)c3c2)CCCC4)CC1)c1ccccc1 (centres undefined) ?
Result block: inactive

Query block: Look up the recorded call for O=C(OCC#CCSc1nnc(-c2cccc3ccccc23)o1)c1sc(Cl)c(Cl)c1Cl in this test.
Result block: active

Query block: Outcome logged for O=C(O)c1cccc(-c2ccc(OC(F)(F)F)cc2)c1 in this assay:
Result block: inactive

Query block: Call for entry O=c1c(-c2cc(O)c(O)c(O)c2)coc2cc(O)c(O)c(O)c12 :
Result block: inactive

Query block: I would be grateful if you could indicate the recorded call for N#C/C(=C\c1ccc(-c2ccc(Cl)c(C(=O)O)c2)o1)c1nc2ccccc2[nH]1 .
Result block: inactive

Query block: State the result this test recorded for O=C(O)c1ccc(C2Nc3ccccc3-c3nnc(SCc4ccc(Cl)cc4)nc3O2)cc1 (centres undefined) .
Result block: inactive

Query block: Tell me the recorded outcome of this test for Cc1ccc2nc(-c3ccc(N=Nc4cc(S(=O)(=O)O)c5ccccc5c4O)cc3)sc2c1S(=O)(=O)O .
Result block: active

Query block: Kindly provide the recorded test outcome for the following compound: Cc1c(Cl)cccc1NS(=O)(=O)c1ccc(NS(=O)(=O)c2ccc3c(c2)OCCO3)cc1
Result block: inactive

----------
biological target: Thioredoxin reductase 1, cytoplasmic (Rattus norvegicus); experiment: qHTS Assay for Substrates of Mammalian Selenoprotein Thioredoxin Reductase 1 (TrxR1) (AID 488772); conditions: purified TrxR1, NADPH consumption substrate assay; series mostly up to 57.1 µM;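 also: NADPH fluorescence in the first read after selenite addition and not the 8 min delta; 0% is about no effect; a drop in NADPH fluorescence below the no-compound background marks a TrxR1 substrate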
Records with an inconclusive call do not appear. Calls of active or inactive are those of the source. Calls come from the whole dose curve; as a rule, active = well fitted curve in the direction sought with a large enough effect; inconclusive = small, poorly fitted or top-dose-only effect, or another doubt; inactive = no such curve, though single readings can be large or run the other way.
measuredAttribute: outcome

Solved cases below.
CC[N+](CC)(CC)CC = inactive
Nc1c(S(=O)(=O)O)cc(Nc2ccc(Nc3nc(Cl)nc(Nc4ccc(S(=O)(=O)O)cc4)n3)c(S(=O)(=O)O)c2)c2c1C(=O)c1ccccc1C2=O = inactive
O=C1c2ccccc2C(=O)c2c(NCCc3ccc(O)cc3)ccc(NCCc3ccc(O)cc3)c21 = inactive
C[C@H](Cc1ccccc1)Nc1ncnc2c1ncn2[C@@H]1O[C@H](CO)[C@@H](O)[C@H]1O = inactive
Cc1cccc(/C=C/c2ccccc2)n1 = inactive
S=C(Nc1ccccc1)Nc1nccs1 = inactive

Query block: Field request: outcome | item: CN1C2CCCC1CC(NC(=O)c1nn(C)c3ccccc13)C2 (configuration not stated)
Result block: inactive

----------
assay: qHTS for Inhibitors of Plasmodium falciparum (7G8) proliferation (AID 504316); also: nearly all actives have a fitted effect of over 65% in size; conditions: P. falciparum 7G8 in erythrocytes, SYBR Green DNA, 72 h; series mostly up to 6.7 µM
Records with an inconclusive call do not appear. Active and inactive are the calls of the source. The call rests on the fitted dose curve; in most records, active means well fitted inhibition curve with a large enough effect; inconclusive means small, poorly fitted or top-dose-only effect; inactive means flat fitted curve, though single readings scatter.
Hi there, use one of these labels in your reply, thanks! True = active, False = inactive

Examples with answers:
C[C@H]1C=CCC(=O)N[C@@H](c2ccccc2)[C@@H](C)C=CCC(=O)N[C@@H]1c1ccccc1 = True
C=CCN1C(=O)[C@]2(OCCC=C[C@H]2C)c2ccccc21 = False

Query block: Query: recorded result category for COc1ccc(O[C@H]2C=C[C@@H](c3ccccc3)O[C@H]2CON=C(C)CCN2CCCCc3nc(C)c(C)cc32)cc1 in this test
Result block: True

Query block: What was the test verdict on CCN1C(=NCc2cccc(C(F)(F)F)c2)NC(c2cccs2)C(C(=O)OC)=C1C (stereo not drawn) ?
Result block: False

Query block: What classification did COc1cccc2c1C1(CCCCC1)CC2NC(=O)C(F)(F)F (stereo not drawn) end up with in this test?
Result block: False

Query block: Identify the outcome logged in this assay for the compound shown: CCN1C(=O)N[C@@H](c2ccccc2)[C@@H](C(=O)OC)[C@H]1C
Result block: False

----------
system: PA-1; experiment: Primary qHTS to identify gynecologic anti-cancer compounds using libraries of approved drugs and bioactive compounds (AID 1345084); conditions: Gynecologic cancer cell panel viability, ATPlite luminescence, 48 h; series mostly up to 57.5 µM; also: % is scaled to controls: 0 for no effect and ±100 for the full control effect; nearly all actives have a fitted effect of over 55% in size
Inconclusive results are not listed. Activity calls are given as the source filed them. The call rests on the fitted dose curve; in most records, active means well fitted cell-killing curve with a large enough effect; inconclusive means small, poorly fitted or top-dose-only effect, or effect the other way; inactive means flat fitted curve, though single readings scatter.
measuredAttribute: outcome

Answered cases to consult:
O=C(NC(NC(=S)Nc1ccc(F)c([N+](=O)[O-])c1)C(Cl)(Cl)Cl)C(c1ccccc1)c1ccccc1 (stereo not given) = inactive
CC(C)n1cnc2c(Nc3cccc(Cl)c3)nc(NCCO)nc21 = inactive
COc1ccc(C2(CNC(=O)[C@](C)(Cc3c[nH]c4ccccc34)NC(=O)Nc3ccc([N+](=O)[O-])cc3)CCCCC2)nc1 = inactive
CCOP(=O)(Cc1ccc(C(=O)Nc2ccc(Br)cc2C#N)cc1)OCC = inactive

Query block: Which outcome value belongs to CCC(=O)c1cc(-c2ccc(Cl)cc2)n(-c2ccc(S(N)(=O)=O)cc2)c1C ?
Result block: inactive
